Assay: Stat Signaling Pathway (AID 446);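 also: ME-180 cervical cancer cells given 40 pM IL-6 alongside compound; SIE-controlled beta-lactamase reporter measured as 460/530 nm FRET emission ratio; % is scaled to controls: 0 for no effect and ±100 for the full control effect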
Details: ME-180 (cervical carcinoma) SIE beta-lactamase reporter, IL-6 stimulated, 5 h; at 17.2 µM (top of the series)
Inconclusive results are not listed.
Listing: activity, negative = inhibition of selected molecules
Give a bare numeral; the unit % is implied.

// below: answered molecules
If you can, please state the reported activity, negative = inhibition value of `CC(=O)[C@H]1CC[C@H]2[C@@H]3CC[C@H]4C[C@H](O)CC[C@]4(C)[C@H]3C(=O)C[C@]12C` .
-6.19

Request the reported activity, negative = inhibition associated with `Fc1ccc(C(OCCN2CCN(CCCc3ccccc3)CC2)c2ccc(F)cc2)cc1`
-6.45

Please give the measured activity, negative = inhibition for this molecule: CCCC(C)(COC(N)=O)COC(=O)NC(C)C (centres undefined)
5.53

Now consider a different molecule.
Bench note: what activity, negative = inhibition did Clc1ccc(COC(Cn2ccnc2)c2ccc(Cl)cc2Cl)cc1 (centres undefined) show?
-23

----------
Test: qHTS of pediatric cancer cell lines to identify multiple opportunities for drug repurposing: Confirmatory screen for NB-EBc1 cells (AID 1347115);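 also: cells exposed to compound for 48 h before the viability read; nearly all actives have a fitted effect of over 45% in size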
Details: NB-EBc1 neuroblastoma cells, viability (cytotoxicity); series mostly up to 45.9 µM
Results filed as inconclusive are left out. Active and inactive are the calls of the source. Calls come from the whole dose curve; as a rule, active = well fitted cell-killing curve with a large enough effect; inconclusive = small, poorly fitted or top-dose-only effect, or effect the other way; inactive = no such curve, though single readings can be large or run the other way.
Respond using exactly one of the listed classes: active, inactive

// below: answered molecules
Please share the test call associated with CC(C)CC(N(C)C)C1(c2ccc(Cl)cc2)CCC1 (stereo unspecified) .
inactive

Could you please tell me the result logged for `COC[C@@H](NC(C)=O)C(=O)NCc1ccccc1` in this assay?
inactive

Others:
Look up the recorded call for `O=c1[nH]c2ccccc2n1CCCN1CCC(n2c(=O)[nH]c3cc(Cl)ccc32)CC1` in this test.
active

Kindly provide the recorded test outcome for the following molecule: C[C@@H]1[C@@H](CC(C[C@H]2O[C@@H]3O[C@]4(C)CC[C@@H]5[C@H](C)CC[C@@H]([C@H]2C)[C@@]35OO4)C[S+](=O)([O-])c2ccc(COC(=O)N(C)C)cc2)O[C@@H]2O[C@]3(C)CC[C@H]4[C@H](C)CC[C@@H]1[C@@]24OO3 (stereo partly specified)
active

Entry `C=C(C)[C@H]1Cc2c(ccc3c2O[C@@H]2COc4cc(OC)c(OC)cc4[C@@H]2C3=O)O1` : call = ?
active

Can you look up the reported call for `Cn1c(CCCC(=O)O)nc2cc(N(CCCl)CCCl)ccc21` for me?
active

----------
Target: Glucocorticoid receptor (Homo sapiens) (UniProt P04150)
Sequence (P04150 whole entry, looked up): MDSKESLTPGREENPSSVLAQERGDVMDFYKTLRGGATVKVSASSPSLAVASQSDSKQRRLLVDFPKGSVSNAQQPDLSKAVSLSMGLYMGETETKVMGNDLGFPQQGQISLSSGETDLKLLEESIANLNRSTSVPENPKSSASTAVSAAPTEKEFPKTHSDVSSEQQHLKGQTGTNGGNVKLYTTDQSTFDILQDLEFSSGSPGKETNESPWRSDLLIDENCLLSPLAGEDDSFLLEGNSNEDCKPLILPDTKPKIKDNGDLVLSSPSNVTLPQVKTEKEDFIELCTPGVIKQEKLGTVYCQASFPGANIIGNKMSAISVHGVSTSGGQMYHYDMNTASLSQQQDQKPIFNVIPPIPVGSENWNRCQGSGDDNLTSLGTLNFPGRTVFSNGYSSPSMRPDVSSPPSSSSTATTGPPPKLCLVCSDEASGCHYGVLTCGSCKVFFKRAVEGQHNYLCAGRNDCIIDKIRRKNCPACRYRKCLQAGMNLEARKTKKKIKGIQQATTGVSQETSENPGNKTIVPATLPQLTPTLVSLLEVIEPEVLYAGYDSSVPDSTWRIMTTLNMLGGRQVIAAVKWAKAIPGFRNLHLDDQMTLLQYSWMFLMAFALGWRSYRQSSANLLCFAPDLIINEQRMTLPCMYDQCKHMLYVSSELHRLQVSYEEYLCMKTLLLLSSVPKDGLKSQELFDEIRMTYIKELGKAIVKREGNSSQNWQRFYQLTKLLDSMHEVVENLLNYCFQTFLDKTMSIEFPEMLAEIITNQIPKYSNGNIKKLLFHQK
Assay: qHTS assay for small molecule antagonists of glucocorticoid receptor signaling (AID 588533);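 also: cells stimulated with 2 nM dexamethasone as agonist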
Details: HeLa MMTV-bla, GRE beta-lactamase ratio, antagonist mode, 18 h; series mostly up to 76.8 µM
Inconclusive results are not listed. Active and inactive are the calls of the source. Calls come from the whole dose curve; as a rule, active = well fitted inhibition curve with a large enough effect in the signal ratio, with a control signal flat (not every such curve was filed as active); inconclusive = small, poorly fitted or top-dose-only effect, or effect the other way, or a change in a side signal; inactive = flat fitted curve, though single readings scatter; the % refers to the signal ratio.
I would appreciate it if you answered using one of these outcomes: class 1 (active), class 0 (inactive)

Examples with answers:
Outcome logged for CNCC(O)c1ccc(O)cc1 (stereo unspecified) in this assay:
class 0

Answer briefly: the call reported for `O=c1[nH]c2ccccc2n1C1CCN(CCCC(c2ccc(F)cc2)c2ccc(F)cc2)CC1` in this assay.
class 0

Given `N[C@@H](Cc1ccc(N(CCCl)CCCl)cc1)C(=O)O` , state the outcome it received in this test.
class 0

Dear colleague, could you share the recorded outcome for `OCCOc1ccccc1` when you have a moment?
class 0

What is the recorded call for this molecule in the test? `COc1cc2c(c(OC)c1OC)-c1ccc(OC)c(=O)cc1[C@@H](NC(C)=O)CC2`
class 0

Next, consider the following molecule.
Outcome? `C[C@H]1O[C@@H](O[C@H]2[C@@H](O)C[C@H](O[C@H]3[C@@H](O)C[C@H](O[C@H]4CC[C@@]5(C)[C@H](CC[C@@H]6[C@@H]5CC[C@]5(C)[C@@H](C7=CC(=O)OC7)CC[C@]65O)C4)O[C@@H]3C)O[C@@H]2C)C[C@H](O)[C@@H]1O`
class 1
